# assay-explanation: Stability in murine microsomes
# Format: in vitro ADME
# conditions: murine microsomes 0.5 mg/ml, 5 μmol·l^−1 test substance, NADPH
parameter: Stability in murine microsomes

1) COc1ccc(CCNC(=O)C(=O)[C@@H]2CCCN2C(=O)CNC(=O)c2ccnc3ccccc23)cc1OC [Compound 3e] ... partially stable
2) COC(=O)[C@H](Cc1ccccc1)NC(=O)CNC(=O)C(=O)[C@@H]1CCCN1C(=O)CNC(=O)c1ccnc2ccccc12 [Compound 5f] ... partially stable

---

# Test system: HepG2
# assay-explanation: Cytotoxicity (XTT) on HepG2 cells
# Type: cell-based, human
# conditions: 100 μM, 72 h
Entries and their measured Cell viability HepG2 100 μM follow.
Numeric answer only, unit % vs. control assumed.

Sample records with Cell viability HepG2 100 μM:
1) COC(=O)[C@H](CCC(=O)OCc1ccccc1)NC(=O)CNC(=O)C(=O)[C@@H]1CCCN1C(=O)CNC(=O)c1ccnc2ccccc12 ... 105
2) COC(=O)[C@H](CCC(N)=O)NC(=O)CNC(=O)C(=O)[C@@H]1CCCN1C(=O)CNC(=O)c1ccnc2ccccc12 ... 108
3) CC(C)NC(=O)C(=O)[C@@H]1CCCN1C(=O)CNC(=O)c1ccnc2ccccc12 ... 110

API: the following record is the query input.
Inquiry: Output measured Cell viability HepG2 100 μM for this item: `CCCCCNC(=O)C(=O)[C@@H]1CCCN1C(=O)CNC(=O)c1ccnc2ccccc12`
Reply text: 124

---

Cell viability CEM 100 μM values for the compounds below.
# System: CCRF-CEM
# assay-explanation: Cytotoxicity (XTT) on CCRF-CEM cells
# Type: cell-based, human
# conditions: 100 μM, 72 h
The reply should be a number in % vs. control, with the unit left off.

Some entries whose results are on file:
1. COc1ccc(NC(=O)C(=O)[C@@H]2CCCN2C(=O)CNC(=O)c2ccnc3ccccc23)cc1 ... 84
2. COC(=O)CNC(=O)C(=O)[C@@H]1CCCN1C(=O)CNC(=O)c1ccnc2ccccc12 ... 123
3. COC(=O)C(C)NC(=O)C(=O)[C@@H]1CCCN1C(=O)CNC(=O)c1ccnc2ccccc12 (mixture of isomers) ... 120

Inquiry: Let me know recorded Cell viability CEM 100 μM for `COC(=O)[C@H](CCCCNC(=O)OCc1ccccc1)NC(=O)CNC(=O)C(=O)[C@@H]1CCCN1C(=O)CNC(=O)c1ccnc2ccccc12` , thanks.
Reply text: 107

Inquiry: Look up Cell viability CEM 100 μM of `COC(=O)c1ccc(NC(=O)C(=O)[C@@H]2CCCN2C(=O)CNC(=O)c2ccnc3ccccc23)cc1` and report it.
Reply text: 73

Inquiry: # return recorded Cell viability CEM 100 μM for input `CC(C)NC(=O)CNC(=O)C(=O)[C@@H]1CCCN1C(=O)CNC(=O)c1ccnc2ccccc12`
Reply text: 108

Inquiry: Return Cell viability CEM 100 μM for the following compound: `CC(C)NC(=O)C(=O)[C@@H]1CCCN1C(=O)CNC(=O)c1ccnc2ccccc12`
Reply text: 117

Inquiry: For the compound `CC(C)(C)OC(=O)CNC(=O)C(=O)[C@@H]1CCCN1C(=O)CNC(=O)c1ccnc2ccccc12` , report Cell viability CEM 100 μM.
Reply text: 121

Values compiled from patent US12371416B2.
